# Target or system: GLP-1R (Homo sapiens, UniProt P43220)
# Sequence (P43220 24-463): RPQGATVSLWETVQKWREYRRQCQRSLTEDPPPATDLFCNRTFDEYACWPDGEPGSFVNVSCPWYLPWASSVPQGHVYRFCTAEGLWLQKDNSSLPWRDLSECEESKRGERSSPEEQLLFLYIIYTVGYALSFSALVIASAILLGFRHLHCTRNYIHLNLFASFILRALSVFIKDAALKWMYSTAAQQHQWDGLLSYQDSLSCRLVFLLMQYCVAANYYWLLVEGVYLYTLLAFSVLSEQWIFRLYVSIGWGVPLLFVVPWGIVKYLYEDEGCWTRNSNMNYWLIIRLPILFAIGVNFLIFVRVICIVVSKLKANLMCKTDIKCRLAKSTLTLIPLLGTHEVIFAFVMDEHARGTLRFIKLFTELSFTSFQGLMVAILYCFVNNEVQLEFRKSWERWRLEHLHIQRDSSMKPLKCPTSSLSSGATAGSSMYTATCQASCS
# Assay details: GLP-1R activation cAMP assay (Assay 1 or Assay 2)
# Test settings: cAMP increase in CHO cells stably expressing GLP-1R; compounds run on one of the two cAMP assays
# Description: GLP-1R ACTIVATION—cAMP Assay 1 GLP-1R activation by compounds of the present disclosure was quantified by measuring cAMP increase in CHO cells stably expressing GLP-1R (MultiSpan product #C1267-1a). […] The tested GLP-1 compound was added to the cells in a 10-point dose response followed by a 30-minute incubation at 37° C., 5% CO2. cAMP concentration increase was then detected using Cisbio's cAMP Gs Dynamic Kit (product #62AM4PEC) according to the manufacturer's protocol. […]
pEC50: −log10 of the molar value.
# Lookup of reported pEC50 keyed by entry
Recorded endpoint: pEC50

smiles_repr=Cc1cc(Cc2nc3ccc(C(=O)O)cc3n2C[C@@H]2CCO2)c(Cl)cc1-c1ccc(F)c(OCc2ncc(C(F)(F)F)s2)n1 target_or_system="GLP-1R (Homo sapiens, UniProt P43220)" recorded_endpoint=pEC50 readout_number=9.17
smiles_repr=Cc1ncc(C#Cc2ccc(COc3cccc(-c4cc(F)c(Cc5nc6ccc(C(=O)O)cc6n5C[C@@H]5CCO5)cc4F)n3)cc2)cn1 target_or_system="GLP-1R (Homo sapiens, UniProt P43220)" recorded_endpoint=pEC50 readout_number=9.52
smiles_repr=O=C(O)c1ccc2nc(Cc3cc(F)c(-c4cccc(OCc5ncc(-c6cnn(C7CC7)c6)s5)n4)cc3F)n(C[C@@H]3CCO3)c2c1 target_or_system="GLP-1R (Homo sapiens, UniProt P43220)" recorded_endpoint=pEC50 readout_number=9.68
smiles_repr=CCOc1nnc(COc2nc(-c3cc(Cl)c(Cc4nc5ccc(C(=O)O)cc5n4[C@@H]4COCC4(C)C)cc3C)ccc2F)s1 target_or_system="GLP-1R (Homo sapiens, UniProt P43220)" recorded_endpoint=pEC50 readout_number=9.75
smiles_repr=CCc1nnc(COc2cccc(-c3cc(F)c(Cc4nc5ccc(C(=O)O)cc5n4C[C@@H]4CCO4)cc3F)n2)s1 target_or_system="GLP-1R (Homo sapiens, UniProt P43220)" recorded_endpoint=pEC50 readout_number=8.58
smiles_repr=O=C(O)c1ccc2nc(Cc3cc(F)c(-c4cccc(OCc5nnc(C6CC(F)(F)C6)s5)n4)cc3F)n(C[C@@H]3CCO3)c2c1 target_or_system="GLP-1R (Homo sapiens, UniProt P43220)" recorded_endpoint=pEC50 readout_number=9.96
